Test: Acute toxicity in ip dosed C57BL/6 mouse measured for 14 days
Format: organism-based
Details: in vivo
Labelling: LD50 at 336 h reported below 100 µmol/kg becomes 1 (yes); at or above becomes 0 (no).

{"columns": ["molecule", "labelClass"],
 "data": [
  ["COc1ccc(-c2nc(C(=O)OCCCCCCOC(=O)c3cc4c5ccccc5n(CCCc5ccccc5)c4c(-c4ccc(OC)cc4)n3)cc3c4ccccc4n(CCCc4ccccc4)c23)cc1", "1 (yes)"],
  ["Cc1nc(C(=O)OCCCOC(=O)c2cc3c4ccccc4n(C)c3c(C)n2)cc2c3ccccc3n(C)c12", "0 (no)"]
]}

Problem: Quick check: LD50 at 336 h of "CCCCn1c2ccccc2c2cc(C(=O)O)ncc21" under 100 µmol/kg?
Result: 0 (no)

Problem: # check: LD50 at 336 h < 100 µmol/kg for "O=C(OCCCCCCOC(=O)c1cc2c3ccccc3n(CCCc3ccccc3)c2cn1)c1cc2c3ccccc3n(CCCc3ccccc3)c2cn1"
Result: 0 (no)

Problem: Is the reported LD50 at 336 h for "CCCCn1c2ccccc2c2cc(C(=O)OCCCCCCOC(=O)c3cc4c5ccccc5n(CCCC)c4cn3)ncc21" strictly below 100 µmol/kg?
Result: 0 (no)

Problem: Determine if "O=C(O)c1cc2c3ccccc3n(CCCc3ccccc3)c2cn1" shows LD50 at 336 h strictly lower than 100 µmol/kg.
Result: 0 (no)

* * *

System: 769-P
Experiment: Cytotoxicity against human 769-P cells after 48 hrs by MTT assay
Type: functional, cell-based
log10 of IC50 values for the compounds below.
Remember, log10 of IC50, in µM.

{"columns": ["molecule", "log10 of IC50"],
 "data": [
  ["O=C(OCCCCCCCCOC(=O)c1cc2c3ccccc3n(Cc3ccccc3)c2cn1)c1cc2c3ccccc3n(Cc3ccccc3)c2cn1", 1.84]
]}

Problem: Give the measured log10 of IC50 of "CCCCn1c2ccccc2c2cc(C(=O)OCCCCOC(=O)c3cc4c5ccccc5n(CCCC)c4cn3)ncc21" .
Result: 1.63

Problem: Form field: reported log10 of IC50 of "Cc1nc(C(=O)OCCCCCCOC(=O)c2cc3c4ccccc4n(Cc4ccccc4)c3c(C)n2)cc2c3ccccc3n(Cc3ccccc3)c12"
Result: 1.81

Problem: # get_value(readout='log10 of IC50', item= "Cc1nc(C(=O)OCCCCCCOC(=O)c2cc3c4ccccc4n(CCCc4ccccc4)c3c(C)n2)cc2c3ccccc3n(CCCc3ccccc3)c12" )
Result: 1.34

Problem: Would you mind telling me what log10 of IC50 value was observed for "CCn1c2ccccc2c2cc(C(=O)OCCCCCCOC(=O)c3cc4c5ccccc5n(CC)c4c(-c4ccc(OC)cc4)n3)nc(-c3ccc(OC)cc3)c21" ?
Result: 1.82

Problem: State the recorded log10 of IC50 for this entry: "Cc1nc(C(=O)OCCCCCCCCCOC(=O)c2cc3c4ccccc4n(CCCc4ccccc4)c3c(C)n2)cc2c3ccccc3n(CCCc3ccccc3)c12"
Result: 2.03

Problem: Bench note: what log10 of IC50 did "COc1ccc(-c2nc(C(=O)OCCCCCCOC(=O)c3cc4c5ccccc5n(CCCc5ccccc5)c4c(-c4ccc(OC)cc4)n3)cc3c4ccccc4n(CCCc4ccccc4)c23)cc1" show?
Result: 1.98
